Reported IC50 by item:
# Measured Target: human orexin-1 receptor (Homo sapiens (Human))
# Assay: In vitro assay: intracellular calcium measurements (FLIPR), antagonistic activity
# Assay type: cell-based
# Experimental Context: CHO cells expressing human orexin-1 receptor, orexin-A agonist, geometric mean, read-out: IC50 Ox1
Dear colleague, please return just the value in nM, with no unit written.

Check out these entries, answers already filled in.
{"Compound": "Cc1ccc(-c2cccnc2)c(C(=O)N2CCC[C@@]2(C)c2nc3ccc(Cl)c(C)c3[nH]2)c1 [Ex. 5.216]", "Test Result": 15}
{"Compound": "C=C1C[C@@H](c2nc3ccc(OC)cc3[nH]2)N(C(=O)c2cc(C)ccc2-n2cccn2)C1", "Test Result": 4950}
{"Compound": "C=C1CN(C(=O)c2cc(Cl)ccc2-n2nccn2)C(C)(c2nc3cc(OC)ccc3[nH]2)C1 (stereo not drawn)", "Test Result": 70}
{"Compound": "C=C1C[C@@H](c2nc3cc(C(C)(C)C)ccc3[nH]2)N(C(=O)c2c(-n3nccn3)ccc(OC)c2F)C1", "Test Result": 259}
{"Compound": "COc1ccc(-n2nccn2)c(C(=O)N2CCC[C@@]2(C)c2nc3cc(C(F)(F)F)c(Cl)cc3[nH]2)c1F", "Test Result": 15}

IC50 reported for this compound CSc1cccc2nc([C@@H]3CCCN3C(=O)c3cncnc3-c3ccc(C)c(C)c3)[nH]c12 : 17

###

# Measured Target: human orexin-1 receptor (Homo sapiens (Human), UniProt O43613)
# Sequence (O43613 whole entry): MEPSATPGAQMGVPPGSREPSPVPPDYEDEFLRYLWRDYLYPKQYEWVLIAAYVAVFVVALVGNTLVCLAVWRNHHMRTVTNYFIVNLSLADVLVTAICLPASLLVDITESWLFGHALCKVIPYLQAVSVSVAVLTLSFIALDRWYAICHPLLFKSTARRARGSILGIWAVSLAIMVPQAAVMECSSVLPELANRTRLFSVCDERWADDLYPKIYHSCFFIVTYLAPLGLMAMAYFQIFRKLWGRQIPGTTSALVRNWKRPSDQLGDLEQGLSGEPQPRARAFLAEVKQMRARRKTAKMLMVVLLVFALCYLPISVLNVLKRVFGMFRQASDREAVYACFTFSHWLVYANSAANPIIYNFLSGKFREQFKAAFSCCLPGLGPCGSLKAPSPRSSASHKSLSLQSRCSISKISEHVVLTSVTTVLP
# Assay: In vitro assay: intracellular calcium measurements (FLIPR), antagonistic activity
# Experimental Context: CHO cells expressing human orexin-1 receptor, orexin-A agonist, geometric mean, read-out: IC50 Ox1
Reported IC50 by item:

Check out these entries, answers already filled in.
{"Molecule": "C=C1C[C@@H](c2nc3c(OC)ccc(OC)c3[nH]2)N(C(=O)c2nc(C)sc2-c2ccc(C)c(C)c2)C1", "IC50": "14 nM"}
{"Molecule": "COc1cc(C(=O)N2CCC[C@H]2c2nc3ccc(SC)cc3[nH]2)c(-n2nccn2)cc1OC", "IC50": "36 nM"}
{"Molecule": "Cc1ccc(-n2nccn2)c(C(=O)N2CCC[C@@]2(C)c2nc3cc(F)c(Cl)cc3[nH]2)c1", "IC50": "15 nM"}

IC50 reported for this molecule C=C1C[C@@H](c2nc3ccc(Cl)c(C)c3[nH]2)N(C(=O)c2nc(C)ccc2-n2cccn2)C1 : 83 nM

IC50 reported for this molecule Cc1cccc(-c2sc(C)nc2C(=O)N2CC[C@H](C)[C@H]2c2nc3cc(C(F)(F)F)ccc3[nH]2)c1 : 2 nM

IC50 reported for this molecule C=C1C[C@@H](c2nc3cc(OC)ccc3[nH]2)N(C(=O)c2nc(C)sc2-c2ccc(Br)cc2)C1 : 410 nM

IC50 reported for this molecule CO[C@H]1CN(C(=O)c2cc(C)ccc2-n2nccn2)C(C)(c2nc3c(C)c(Cl)ccc3[nH]2)C1 (stereo partly shown) : 5 nM

###

# Measured Target: human orexin-1 receptor (Homo sapiens (Human))
# Assay: In vitro assay: intracellular calcium measurements (FLIPR), antagonistic activity
# Format: cell-based
# Experimental Context: CHO cells expressing human orexin-1 receptor, orexin-A agonist, geometric mean, read-out: IC50 Ox1
Endpoint Label: log10 IC50 (log10 of the value in µM)
Give log10 of IC50, with IC50 taken in µM.

{"Compound": "C=C1C[C@@H](c2nc3cc(OC)ccc3[nH]2)N(C(=O)c2nc(C3CC3)sc2-c2cccc(OC)c2)C1 [Ex. 6.31]", "log10 IC50": -1.39}
{"Compound": "CO[C@@H]1C[C@@H](c2nc3c(C)cccc3[nH]2)N(C(=O)c2nc(C)sc2-c2cccc(Cl)c2)C1 [Ex. 3.7]", "log10 IC50": -2.05}
{"Compound": "CO[C@H]1CN(C(=O)c2cc(C)ccc2-n2nccn2)C(C)(c2nc3c(C)cccc3[nH]2)C1 (stereo partly drawn) [Ex. 3.26]", "log10 IC50": -1.30}
{"Compound": "CSc1cccc2nc([C@@H]3CCCN3C(=O)c3cc(C#N)ccc3-n3nccn3)[nH]c12 [Ex. 1.167]", "log10 IC50": -1.01}
{"Compound": "C=C1CN(C(=O)c2nc(C)sc2-c2ccccc2)C(C)(c2nc3cc(OC)ccc3[nH]2)C1 (racemic) [Ex. 6.154]", "log10 IC50": -1.49}
{"Compound": "Cc1nc(C(=O)N2CC[C@H](C)[C@H]2c2nc3c(C)cc(Cl)cc3[nH]2)c(-c2ccc(F)cc2)s1 [Ex. 4.100]", "log10 IC50": -2.22}
{"Compound": "C=C1C[C@@H](c2nc3cc(OC)ccc3[nH]2)N(C(=O)c2nc(C)sc2-c2cccc(Cl)c2Cl)C1 [Ex. 6.23]", "log10 IC50": -0.34}
{"Compound": "COc1cccc(-c2sc(C)nc2C(=O)N2CCC[C@@]2(C)c2nc3c(F)c(F)ccc3[nH]2)c1 [Ex. 5.213]", "log10 IC50": -1.80}

log10 IC50 reported for this compound Cc1ccc(-c2ccc(C)cc2C(=O)N2CCC[C@@]2(C)c2nc3cc(C)c(C)cc3n2CC2CC2)cc1 [Ex. 7.39] : -1.37

log10 IC50 reported for this compound COc1ccc2[nH]c(C3CCCN3C(=O)c3cc(C)ccc3-n3nccn3)nc2c1 (stereo not drawn) [Ex. 1.141] : -0.29

log10 IC50 reported for this compound C=C1C[C@@H](c2nc3cc(OC)ccc3[nH]2)N(C(=O)c2nc(C)sc2-c2cccc(F)c2)C1 [Ex. 6.33] : -0.67

###

Reported log10 IC50 by item:
# Measured Target: human orexin-1 receptor (Homo sapiens (Human), UniProt O43613)
# Assay: In vitro assay: intracellular calcium measurements (FLIPR), antagonistic activity
# Experimental Context: CHO cells expressing human orexin-1 receptor, orexin-A agonist, geometric mean, read-out: IC50 Ox1
Give log10 of IC50, with IC50 taken in nM.

Check out these entries, answers already filled in.
{"Mol": "CSc1ccc2[nH]c([C@@H]3CCCN3C(=O)c3cc(C)ccc3-n3cccn3)nc2c1", "log10 IC50": 2.93}
{"Mol": "COc1ccc2[nH]c([C@@H]3CCCN3C(=O)c3cc(C)ccc3-n3nccn3)nc2c1", "log10 IC50": 2.54}
{"Mol": "Cc1cc2nc([C@]3(C)CCCN3C(=O)c3ccccc3-n3nccn3)[nH]c2cc1C", "log10 IC50": 2.05}
{"Mol": "Cc1ccc(-n2nccn2)c(C(=O)N2CCC[C@@]2(C)c2nc3cc(Cl)c(C)cc3[nH]2)c1", "log10 IC50": 0.70}
{"Mol": "C=C1C[C@@H](c2nc3cc(Cl)c(C(F)(F)F)cc3[nH]2)N(C(=O)c2c(F)cccc2-n2nccn2)C1", "log10 IC50": 1.89}

log10 IC50 reported for this molecule COc1ccc(-c2ccc3c(c2)OCO3)c(C(=O)N2CCC[C@@]2(C)c2nc3c(C)c(Cl)ccc3[nH]2)c1F : 1.28

log10 IC50 reported for this molecule Cc1nc(C(=O)N2C[C@@H](F)C[C@H]2c2nc3c(C)c(Cl)ccc3[nH]2)c(-c2ccccc2)s1 : 1.82

log10 IC50 reported for this molecule C=C1C[C@@H](c2nc3cc(C(C)(C)C)ccc3[nH]2)N(C(=O)c2cc(F)ccc2-n2nccn2)C1 : 2.51

log10 IC50 reported for this molecule C=C1C[C@@H](c2nc3cc(C)c(C)cc3n2C)N(C(=O)c2cc(C)ccc2-n2nccn2)C1 : 2.62

log10 IC50 reported for this molecule COc1cccc2[nH]c([C@@H]3[C@@H](C)CCN3C(=O)c3cc(C)ccc3-n3nccn3)nc12 : 1.89

log10 IC50 reported for this molecule Cc1ccc(-c2ccc(OC(F)(F)F)cc2)c(C(=O)N2CCC[C@@]2(C)c2nc3cc(C(F)(F)F)c(Cl)cc3[nH]2)c1 : 2.72

log10 IC50 reported for this molecule Cc1nc(C(=O)N2CC[C@H](C)[C@H]2c2nc3cc(C)c(C)cc3[nH]2)c(-c2cccc(Cl)c2)s1 : 0.30

log10 IC50 reported for this molecule COc1ccc(-n2nccn2)c(C(=O)N2CCC[C@@]2(C)c2nc3c(C)c(Cl)ccc3[nH]2)c1F : 1.00

log10 IC50 reported for this molecule COc1cc2nc([C@@H]3[C@@H](C)CCN3C(=O)c3cc(F)ccc3-n3nccn3)[nH]c2cc1OC : 2.26

log10 IC50 reported for this molecule C[C@@]1(c2nc3cc(C(F)(F)F)c(Cl)cc3[nH]2)CCCN1C(=O)c1ccccc1-n1nccn1 : 0.90

###

Reported pIC50 by item:
# Measured Target: human orexin-1 receptor (Homo sapiens (Human))
# Assay: In vitro assay: intracellular calcium measurements (FLIPR), antagonistic activity
# Type: cell-based
# Experimental Context: CHO cells expressing human orexin-1 receptor, orexin-A agonist, geometric mean, read-out: IC50 Ox1
Expect pIC50 as a plain number equal to -log10 of the molar concentration.

Check out these entries, answers already filled in.
{"Compound": "Cc1nc(C(=O)N2CC[C@H](C)[C@H]2c2nc3c(Cl)cccc3[nH]2)c(-c2ccc(F)cc2)s1", "Measured Target": "human orexin-1 receptor (Homo sapiens (Human))", "Endpoint Label": "pIC50", "Test Result": 7.30}
{"Compound": "COc1cccc(C#Cc2ccccc2C(=O)N2CCC[C@@]2(C)c2nc3cc(C(F)(F)F)ccc3[nH]2)c1", "Measured Target": "human orexin-1 receptor (Homo sapiens (Human))", "Endpoint Label": "pIC50", "Test Result": 6.74}
{"Compound": "Cc1ccc(-n2nccn2)c(C(=O)N2CC[C@H](C)[C@H]2c2nc3c(C)c(Cl)ccc3[nH]2)c1F", "Measured Target": "human orexin-1 receptor (Homo sapiens (Human))", "Endpoint Label": "pIC50", "Test Result": 8.70}
{"Compound": "Cc1cc2[nH]c([C@@H]3[C@@H](C)CCN3C(=O)c3c(F)cccc3-c3ncccn3)nc2cc1Cl", "Measured Target": "human orexin-1 receptor (Homo sapiens (Human))", "Endpoint Label": "pIC50", "Test Result": 7.60}
{"Compound": "CO[C@@H]1C[C@@H](c2nc3ccc(Cl)c(C)c3[nH]2)N(C(=O)c2nc(N(C)C)sc2-c2ccc(C)c(C)c2)C1", "Measured Target": "human orexin-1 receptor (Homo sapiens (Human))", "Endpoint Label": "pIC50", "Test Result": 9.10}
{"Compound": "Cc1nc(C(=O)N2CCCC2c2nc3cc(C(F)(F)F)c(F)cc3[nH]2)c(-c2cccc(Cl)c2)s1 (stereo not drawn)", "Measured Target": "human orexin-1 receptor (Homo sapiens (Human))", "Endpoint Label": "pIC50", "Test Result": 7.49}

pIC50 reported for this compound Cc1c(Cl)ccc2[nH]c([C@@H]3[C@@H](C)CCN3C(=O)c3cc(F)ccc3-c3ncccn3)nc12 : 7.85

pIC50 reported for this compound Cc1ccc(C(=O)N2CC[C@H](C)[C@H]2c2nc3cc(Cl)c(C)cc3[nH]2)c(-c2ncccn2)c1 : 7.96

pIC50 reported for this compound CSc1cccc2nc([C@@H]3CCCN3C(=O)c3c(F)cccc3-n3nccn3)[nH]c12 : 6.66

pIC50 reported for this compound Cc1c(Cl)ccc2nc([C@]3(C)CCCN3C(=O)c3cc(F)ccc3-c3ccccn3)[nH]c12 : 7.72

pIC50 reported for this compound Cc1ccc(-c2ncccn2)c(C(=O)N2CC[C@H](C)[C@H]2c2nc3c(C)c(Cl)ccc3[nH]2)c1F : 7.82

pIC50 reported for this compound CCc1ccc(-c2sc(C)nc2C(=O)N2CCC[C@H]2c2nc3ccc(SC)cc3[nH]2)cc1 : 6.58

pIC50 reported for this compound C=C1CN(C(=O)c2nc(N(C)C)sc2-c2cccc(Cl)c2)C(C)(c2nc3cc(OC)ccc3[nH]2)C1 (stereo not drawn) : 8.30

pIC50 reported for this compound CSc1ccc2nc([C@@H]3CCCN3C(=O)c3cc(C(F)(F)F)ccc3-n3nccn3)[nH]c2c1 : 6.12

pIC50 reported for this compound C=C1C[C@@H](c2nc3cccc(C)c3[nH]2)N(C(=O)c2nc(C)sc2-c2cccc(C)c2)C1 : 8.00
